target-or-test-system: recombinant BodoOBP10 (Bradysia odoriphaga, UniProt A0A2S0X9G4)
Sequence (A0A2S0X9G4 20-144): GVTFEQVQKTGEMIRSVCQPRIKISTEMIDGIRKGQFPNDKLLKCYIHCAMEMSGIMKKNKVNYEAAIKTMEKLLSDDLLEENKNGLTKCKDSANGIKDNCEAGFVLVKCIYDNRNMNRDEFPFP
test-method-notes: Binding curve of the fluorescence reporter 1-NPN
measured-endpoint: Ki

>>> reported_value("c1ccc(Nc2cccc3ccccc23)cc1")
"780 nM"
